Assay: Dye release from crystalline cellulose gel to liquid phase (visual and spectrophotometric)
Assay type: physicochemical
Conditions: over 72 hours, 10 ml RO water over gel, at absorbance maximum of dye; 4 AU = saturation
The label depends only on dye release to liquid phase, absorbance: 1 if it is at least 0.09 AU, 0 if it is smaller.

{"molecule": "CCN(CC)c1ccc(C(=C2C=CC(=[N+](CC)CC)C=C2)c2ccccc2)cc1 [brilliant green, Brilliant Green]", "qualitative-label": 1}
{"molecule": "Nc1c(/N=N/c2ccc(-c3ccc(/N=N/c4cc(S(=O)(=O)[O-])c5ccccc5c4N)cc3)cc2)cc(S(=O)(=O)[O-])c2ccccc12.[Na+].[Na+] [congo red, Congo Red]", "qualitative-label": 1}
{"molecule": "CCN(Cc1cccc(S(=O)(=O)[O-])c1)c1ccc(C(=C2C=CC(=[N+](CC)Cc3cccc(S(=O)(=O)O)c3)C=C2)c2ccc(S(=O)(=O)O)cc2)cc1 [light green, Light Green]", "qualitative-label": 1}
{"molecule": "CN(C)c1ccc(C(=C2C=CC(=[N+](C)C)C=C2)c2ccccc2)cc1.[Cl-] [malachite green, Malachite Green]", "qualitative-label": 1}
{"molecule": "CN(C)c1ccc2nc3ccc(=[N+](C)C)cc-3sc2c1 [methylene blue, Methylene Blue]", "qualitative-label": 0}
{"molecule": "Cc1cc2nc3cc(C)c(N)cc3[n+](-c3ccccc3)c2cc1N [safranine, Safranine]", "qualitative-label": 0}

----------
Test: Dye release from crystalline cellulose gel to liquid phase (visual and spectrophotometric)
Assay type: physicochemical
Settings: categorised from absorbance in the liquid phase, 0-72 hours
recorded-endpoint: release pattern from crystalline cellulose gel (very slow, slow, fast, very fast)

{"compound": "Nc1c(/N=N/c2ccc(-c3ccc(/N=N/c4cc(S(=O)(=O)[O-])c5ccccc5c4N)cc3)cc2)cc(S(=O)(=O)[O-])c2ccccc12.[Na+].[Na+] [congo red, Congo Red]", "result": "slow"}
{"compound": "CCN(CC)c1ccc(C(=C2C=CC(=[N+](CC)CC)C=C2)c2ccccc2)cc1 [brilliant green, Brilliant Green]", "result": "very fast"}
{"compound": "Cc1cc2nc3cc(C)c(N)cc3[n+](-c3ccccc3)c2cc1N [safranine, Safranine]", "result": "slow"}
{"compound": "Oc1cc2c(cc1O)[C@@H]1c3ccc(O)c(O)c3OC[C@]1(O)C2 [haematoxylin, Hematoxilin]", "result": "slow"}
{"compound": "CCN(Cc1cccc(S(=O)(=O)[O-])c1)c1ccc(C(=C2C=CC(=[N+](CC)Cc3cccc(S(=O)(=O)O)c3)C=C2)c2ccc(S(=O)(=O)O)cc2)cc1 [light green, Light Green]", "result": "very fast"}
{"compound": "CN(C)c1ccc(C(=C2C=CC(=[N+](C)C)C=C2)c2ccccc2)cc1.[Cl-] [malachite green, Malachite Green]", "result": "slow"}

Cited source: patent US20170000903A1
